- System: NCI-H226
- experimental-protocol: NCI 60 cell panel SRB screen
- Type: cell-based
- test-conditions: Homo sapiens; NCI-H226, 5 log dose, 48 h; read-out: LC50 (the source's name)
recorded-metric: CC50 (µM)
Numbers only, in µM.

{"columns": ["compound", "CC50, µM"],
 "data": [
  ["O=C(Nc1ccc(Cl)cc1)Nc1ccc(Nc2nncc3ccccc23)cc1", 43.2],
  ["Clc1ccc(Nc2nnc(COc3ccccc3)c3ccccc23)cc1 [Compound 17a]", 21.7]
]}

Please find the next compound below.
Prompt: Form field: reported CC50 of Cc1nnc(Nc2ccc(NC(=O)Nc3ccc(Cl)cc3)cc2)c2ccccc12
Response: 64.6

---

- Tested on: NCI-H522
- experimental-protocol: NCI 60 cell panel SRB screen
- Assay type: cell-based
- test-conditions: Homo sapiens; NCI-H522, 5 log dose
recorded-metric: log10 of GI50 (log10 of the value in nM)
Hi team, quick reminder: these entries are log10 of GI50 (nM).

State recorded log10 of GI50 for all listed compounds.
1. Cc1nnc(Nc2ccc(NC(=O)Nc3ccc(Cl)cc3)cc2)c2ccccc12
2. Clc1ccc(Nc2nnc(COc3ccccc3)c3ccccc23)cc1 [Compound 17a]
3. Clc1ccc(Nc2nnc(CNc3ccccc3)c3ccccc23)cc1 [Compound 16a]
4. COc1cccc(NCc2nnc(Nc3ccc(Cl)cc3)c3ccccc23)c1 [Compound 16d]
5. O=C(Nc1ccccc1)Nc1ccc(Oc2nnc(Cl)c3ccccc23)cc1 [Compound 13a]
6. O=C(Nc1ccc(Cl)cc1)Nc1ccc(Nc2nncc3ccccc23)cc1
7. O=C(Nc1ccc(Cl)cc1)Nc1ccc(Oc2nncc3ccccc23)cc1

Response:
1. 3.26
2. 2.54
3. 2.83
4. 2.51
5. 3.45
6. 3.12
7. 2.28

---

- system-name: VEGFR-2 tyrosine kinase (Homo sapiens)
- Construct: purchased BPS Bioscience 40301
- Sequence (P35968 20-1356): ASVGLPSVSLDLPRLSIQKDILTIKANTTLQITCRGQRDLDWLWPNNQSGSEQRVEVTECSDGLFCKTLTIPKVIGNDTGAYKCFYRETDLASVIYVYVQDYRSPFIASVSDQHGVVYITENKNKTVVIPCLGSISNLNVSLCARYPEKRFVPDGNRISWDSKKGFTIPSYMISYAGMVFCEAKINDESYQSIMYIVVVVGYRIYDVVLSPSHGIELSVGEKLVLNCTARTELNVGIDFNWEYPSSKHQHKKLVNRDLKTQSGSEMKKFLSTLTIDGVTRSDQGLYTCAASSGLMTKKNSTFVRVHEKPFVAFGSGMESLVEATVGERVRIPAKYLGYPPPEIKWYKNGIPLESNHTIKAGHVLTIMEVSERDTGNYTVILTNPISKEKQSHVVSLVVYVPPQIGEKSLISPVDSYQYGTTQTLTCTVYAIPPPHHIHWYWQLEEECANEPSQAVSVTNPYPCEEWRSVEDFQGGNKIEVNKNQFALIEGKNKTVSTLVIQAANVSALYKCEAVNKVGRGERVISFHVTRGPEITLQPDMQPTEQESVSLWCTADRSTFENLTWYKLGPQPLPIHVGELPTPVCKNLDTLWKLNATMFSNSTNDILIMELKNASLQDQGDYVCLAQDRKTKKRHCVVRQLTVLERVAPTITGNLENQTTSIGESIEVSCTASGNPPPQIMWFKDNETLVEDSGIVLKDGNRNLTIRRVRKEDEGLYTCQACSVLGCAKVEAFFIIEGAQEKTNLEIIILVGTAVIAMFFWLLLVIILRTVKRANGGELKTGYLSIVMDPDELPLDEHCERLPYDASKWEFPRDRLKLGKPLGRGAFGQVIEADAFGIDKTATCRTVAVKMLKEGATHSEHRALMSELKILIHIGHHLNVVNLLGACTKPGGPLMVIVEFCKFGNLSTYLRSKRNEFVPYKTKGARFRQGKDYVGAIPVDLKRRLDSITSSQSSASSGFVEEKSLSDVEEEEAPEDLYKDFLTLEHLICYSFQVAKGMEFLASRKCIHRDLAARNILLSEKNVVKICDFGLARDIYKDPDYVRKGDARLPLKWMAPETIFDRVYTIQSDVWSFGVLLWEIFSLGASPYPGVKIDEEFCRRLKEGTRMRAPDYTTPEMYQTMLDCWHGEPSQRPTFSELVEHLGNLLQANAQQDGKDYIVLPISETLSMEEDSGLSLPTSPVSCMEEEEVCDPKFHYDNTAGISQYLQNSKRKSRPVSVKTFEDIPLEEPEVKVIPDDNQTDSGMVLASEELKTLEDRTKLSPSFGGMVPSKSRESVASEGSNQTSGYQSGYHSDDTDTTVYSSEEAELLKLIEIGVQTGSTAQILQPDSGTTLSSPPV
- experimental-protocol: In vitro VEGFR-2 tyrosine kinase assay (BPS Bioscience)
- Format: biochemical
- test-conditions: read-out: VEGFR-2 % inhibition; 10 μM concentration
recorded-metric: inhibition at 10 µM (%)
Numbers only, in %.

{"columns": ["molecule", "observed-result"],
 "data": [
  ["Cc1nnc(N2CCN(c3ccccc3)CC2)c2ccccc12", 13],
  ["Clc1ccc(Nc2nnc(CNc3cccc(Cl)c3)c3ccccc23)cc1 [Compound 16b]", 21],
  ["O=C(Nc1ccccc1)Nc1ccc(Oc2nnc(Cl)c3ccccc23)cc1 [Compound 13a]", 24],
  ["O=C(Nc1ccccc1)Nc1ccc(Nc2nncc3ccccc23)cc1", 13]
]}

Please find the next molecule below.
Prompt: Form field: reported inhibition at 10 µM of Cc1nnc(N2CCN(C(=O)c3ccco3)CC2)c2ccccc12
Response: 10

---

- System: NCI/ADR-RES
- experimental-protocol: NCI 60 cell panel SRB screen
- Type: cell-based
- test-conditions: Homo sapiens, 5 log dose
Label key: Y means GI50 under 3000 nM; N means GI50 of 3000 nM or more.

See these solved cases before continuing.
{"columns": ["molecule", "class-label"],
 "data": [
  ["Clc1ccc(Nc2nnc(COc3ccccc3)c3ccccc23)cc1 [Compound 17a]", "Y"],
  ["O=C(Nc1ccc(Cl)cc1)Nc1ccc(Nc2nncc3ccccc23)cc1", "Y"],
  ["O=C(Nc1ccccc1)Nc1ccc(Oc2nnc(Cl)c3ccccc23)cc1 [Compound 13a]", "Y"]
]}

Prompt: GI50 strictly < 3000 nM for this molecule? O=C(Nc1ccc(Cl)cc1)Nc1ccc(Oc2nncc3ccccc23)cc1
Response: Y

Prompt: Ok, now Cc1nnc(Nc2ccc(NC(=O)Nc3ccc(Cl)cc3)cc2)c2ccccc12
Response: N

Prompt: Ok, now Clc1ccc(Nc2nnc(CNc3ccccc3)c3ccccc23)cc1 [Compound 16a]
Response: N

Prompt: Ok, now COc1cccc(NCc2nnc(Nc3ccc(Cl)cc3)c3ccccc23)c1 [Compound 16d]
Response: Y
